# concentration at 0.5 h values compiled below
experiment: Plasma concentration in halothane anesthetized dog at 3 mg/kg/ml, iv measured after 30 mins; format: ADME, organism-based, Canis lupus familiaris
measurement name: concentration at 0.5 h (µM)

                           substance_smiles        measurement_name  test_result
0  CC(C)(C)Cc1cnc(CCc2ccc(-c3cccc(F)c3C(=O)O)cc2)n1CC(=O)O  concentration at 0.5 h         20.1
1  COC(=O)c1c(F)cccc1-c1ccc(CCc2ncc(CC(C)(C)C)n2CC(=O)O)cc1  concentration at 0.5 h         28.2

----------
# solubility values compiled below
experiment: Solubility of the compound in JP2 at pH 6.8; type: physicochemical; settings: JP2, pH 6.8
measurement name: solubility

>>> df
                           substance_smiles  test_result
0  COC(=O)c1c(F)cccc1-c1ccc(CCc2ncc(CC(C)(C)C)n2CC(=O)O)cc1    370 µg/mL
1  CC(C)(C)Cc1cnc(CCc2ccc(-c3cccc(F)c3C(=O)O)cc2)n1CC(=O)O  > 870 µg/mL

----------
target: Bombesin receptor subtype-3 (Mus musculus, UniProt O54798); test: Agonist activity at mouse BRS3 expressed in CHOK1 cells measured after 1 hrs by IP-One HTRF assay
Sequence (O54798 whole entry): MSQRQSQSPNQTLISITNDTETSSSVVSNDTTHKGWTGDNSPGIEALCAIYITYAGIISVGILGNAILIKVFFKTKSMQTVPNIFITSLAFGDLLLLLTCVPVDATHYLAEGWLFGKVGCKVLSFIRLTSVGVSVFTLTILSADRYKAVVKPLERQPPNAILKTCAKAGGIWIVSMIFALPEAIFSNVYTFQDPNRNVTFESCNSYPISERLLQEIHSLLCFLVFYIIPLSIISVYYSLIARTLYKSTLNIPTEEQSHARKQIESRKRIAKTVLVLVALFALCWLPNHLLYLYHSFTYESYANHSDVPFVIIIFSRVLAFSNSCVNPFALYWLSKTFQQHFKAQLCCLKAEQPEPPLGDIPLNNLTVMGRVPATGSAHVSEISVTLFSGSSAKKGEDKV
measurement name: EC50 (µM)

In [3]: df
Out[3]:
                           substance_smiles  measurement_name  unit_abbreviation  operator_symbol  test_result
0  CC(C)(C)Cc1cnc(CCc2ccc(-c3cccc(F)c3C(=O)O)cc2)n1CCO              EC50                 µM                =        0.002
1  COC(=O)c1ccccc1-c1ccc(CCc2ncc(CC(C)(C)C)n2CC(=O)O)cc1              EC50                 µM                =        0.694
2  COC(=O)c1ccccc1-c1ccc(CCCc2ncc(CC(C)(C)C)[nH]2)cc1              EC50                 µM                >           10
3  COC(=O)c1c(F)cccc1-c1ccc(CCc2ncc(CC(C)(C)C)n2CCC(=O)O)cc1              EC50                 µM                =        0.003
4  CCC(C)(C)Cc1cnc(CCc2ccc(-c3ccccn3)cc2)n1CC(=O)O              EC50                 µM                =        0.026

----------
assay: Fraction unbound in mouse plasma; type: ADME, cell-free
measurement name: fraction unbound

>>> df
                           substance_smiles  test_result
0  CC(C)(C)Cc1cnc(CCc2ccc(-c3cccc(F)c3C(=O)O)cc2)n1CC(=O)O        0.181
1  COC(=O)c1c(F)cccc1-c1ccc(CCc2ncc(CC(C)(C)C)n2CC(=O)O)cc1       0.0167

----------
target: Bombesin receptor subtype-3 (Mus musculus, UniProt O54798); test: Agonist activity at mouse BRS3 expressed in CHOK1 cells measured after 1 hrs by IP-One HTRF assay
pEC50: −log10 of the molar value.
measurement name: pEC50

                           substance_smiles  test_result
0  COC(=O)C(C)(C)Oc1ccc(CCc2ncc(CC(C)(C)C)[nH]2)cc1         6.21
1  CC(C)(C)Cc1cnc(CCc2ccc(-c3cccc(F)c3C(=O)O)cc2)n1CCNS(C)(=O)=O         8.40
2  COC(=O)C(C)(C)c1ccc(CCc2ncc(CC(C)(C)C)[nH]2)cc1         5.00
3  COC(=O)c1c(F)cccc1-c1ccc(CCc2ncc(CC(C)(C)C)n2Cc2ccc(C(=O)O)cc2)cc1         8.30
4  COC(=O)c1ccccc1-c1ccc(CCc2ncc(CC(C)(C)C)[nH]2)cc1         6.30
5  CC(C)(C)Cc1cnc(CCc2ccc(-c3cccc(F)c3C(=O)O)cc2)n1CCC(=O)O         7.21
6  COC(=O)c1c(F)cccc1-c1ccc(CCc2ncc(CC(C)(C)C)n2CCO)cc1         7.62
7  CC(C)(C)Cc1cnc(CCc2ccc(-c3cccc(F)c3C(=O)O)cc2)n1CC(=O)O         6.85
8  COC(=O)c1c(F)cccc1-c1ccc(CCc2ncc(CC(C)(C)C)n2CCNS(C)(=O)=O)cc1         8.15

----------
biological target: Bombesin receptor subtype-3 (Homo sapiens); test: Agonist activity at human BRS3 expressed in CHOK1 cells measured after 1 hrs by IP-One HTRF assay
Sequence (P32247 whole entry): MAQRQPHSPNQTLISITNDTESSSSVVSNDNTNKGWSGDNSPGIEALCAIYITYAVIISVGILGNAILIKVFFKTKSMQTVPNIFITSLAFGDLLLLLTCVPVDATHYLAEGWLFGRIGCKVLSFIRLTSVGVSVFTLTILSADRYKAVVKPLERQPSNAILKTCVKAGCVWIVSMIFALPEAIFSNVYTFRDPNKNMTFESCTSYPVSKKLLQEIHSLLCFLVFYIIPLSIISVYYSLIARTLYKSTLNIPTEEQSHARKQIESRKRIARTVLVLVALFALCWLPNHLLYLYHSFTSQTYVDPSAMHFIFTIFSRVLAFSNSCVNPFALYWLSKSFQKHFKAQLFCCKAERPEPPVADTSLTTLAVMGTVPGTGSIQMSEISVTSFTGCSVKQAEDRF
measurement name: EC50

                            substance_smiles                              assay_target  measurement_name  test_result
 0  CC(C)(C)Cc1cnc(CCc2ccc(-c3cccc(F)c3C(=O)O)cc2)n1CCC(=O)O  Bombesin receptor subtype-3 (Homo sapiens)              EC50        11 nM
 1  CC(C)(C)Cc1cnc(CCc2ccc(-c3cccc(F)c3C(=O)O)cc2)n1CCO  Bombesin receptor subtype-3 (Homo sapiens)              EC50         3 nM
 2  COC(=O)c1c(F)cccc1-c1ccc(CCc2ncc(CC(C)(C)C)n2CCC(=O)O)cc1  Bombesin receptor subtype-3 (Homo sapiens)              EC50         1 nM
 3  COC(=O)c1ccccc1-c1ccc(CCc2ncc(CC(C)(C)C)n2CC(=O)O)cc1  Bombesin receptor subtype-3 (Homo sapiens)              EC50       968 nM
 4  CCC(C)(C)Cc1cnc(CCc2ccc(-c3ccccn3)cc2)n1CC(=O)O  Bombesin receptor subtype-3 (Homo sapiens)              EC50        42 nM
 5  CC(C)(C)Cc1cnc(CCc2ccc(-c3cccc(F)c3C(=O)O)cc2)n1Cc1ccc(C(=O)O)cc1  Bombesin receptor subtype-3 (Homo sapiens)              EC50        12 nM
 6  COC(=O)C(C)(C)Oc1ccc(CCc2ncc(CC(C)(C)C)[nH]2)cc1  Bombesin receptor subtype-3 (Homo sapiens)              EC50   > 10000 nM
 7  COC(=O)c1c(F)cccc1-c1ccc(CCc2ncc(CC(C)(C)C)n2CCO)cc1  Bombesin receptor subtype-3 (Homo sapiens)              EC50        21 nM
 8  COC(=O)c1ccccc1-c1ccc(CCCc2ncc(CC(C)(C)C)[nH]2)cc1  Bombesin receptor subtype-3 (Homo sapiens)              EC50   > 10000 nM
 9  CCC(C)(C)Cc1cn(CC(=O)O)c(CCc2ccc(-c3ccccn3)cc2)n1  Bombesin receptor subtype-3 (Homo sapiens)              EC50      4080 nM
10  CC(C)(C)Cc1cnc(CCc2ccc(-c3cccc(F)c3C(=O)O)cc2)n1CC(=O)O  Bombesin receptor subtype-3 (Homo sapiens)              EC50        69 nM
11  COC(=O)c1c(F)cccc1-c1ccc(CCc2ncc(CC(C)(C)C)n2Cc2ccc(C(=O)O)cc2)cc1  Bombesin receptor subtype-3 (Homo sapiens)              EC50         3 nM
12  COC(=O)c1ccccc1-c1ccc(CCc2ncc(CC(C)(C)C)[nH]2)cc1  Bombesin receptor subtype-3 (Homo sapiens)              EC50       644 nM
13  COC(=O)C(C)(C)c1ccc(CCc2ncc(CC(C)(C)C)[nH]2)cc1  Bombesin receptor subtype-3 (Homo sapiens)              EC50      2230 nM
14  COC(=O)c1c(F)cccc1-c1ccc(CCc2ncc(CC(C)(C)C)n2CCOc2cccc(O)c2)cc1  Bombesin receptor subtype-3 (Homo sapiens)              EC50        13 nM
15  COC(=O)c1c(F)cccc1-c1ccc(CCc2ncc(CC(C)(C)C)n2CC(=O)O)cc1  Bombesin receptor subtype-3 (Homo sapiens)              EC50        39 nM
16  CC(C)(C)Cc1cnc(CCc2ccc(-c3ccccc3C(=O)O)cc2)n1CC(=O)O  Bombesin receptor subtype-3 (Homo sapiens)              EC50       897 nM
17  CC(C)(C)Cc1cnc(CCc2ccc(-c3cccc(F)c3C(=O)O)cc2)n1CCOc1cccc(O)c1  Bombesin receptor subtype-3 (Homo sapiens)              EC50       0.9 nM
18  CC(C)(C)Cc1cnc(CCc2ccc(-c3cccc(F)c3C(=O)O)cc2)n1CCNS(C)(=O)=O  Bombesin receptor subtype-3 (Homo sapiens)              EC50         2 nM
19  COC(=O)c1c(F)cccc1-c1ccc(CCc2ncc(CC(C)(C)C)n2CCNS(C)(=O)=O)cc1  Bombesin receptor subtype-3 (Homo sapiens)              EC50        11 nM
